System: A549
Assay: Cytotoxicity against human A549 cell line
Format: functional, cell-based
Recorded IC50 for the following compounds
Reply numerically in µM, unit not repeated.

// known answers, use as guide
CC(=O)O[C@@]12CO[C@@H]1C[C@H](O)[C@@]1(C)C(=O)[C@H](O)C3=C(C)[C@@H](OC(=O)/C=C/c4ccc(Sc5ccccc5)cc4)C[C@@](O)([C@@H](OC(=O)c4ccccc4)[C@H]21)C3(C)C : 4.5
CC(=O)O[C@@]12CO[C@@H]1C[C@H](O)[C@@]1(C)C(=O)[C@H](O)C3=C(C)[C@@H](OC(=O)/C=C/c4ccc(Oc5ccccc5)cc4)C[C@@](O)([C@@H](OC(=O)c4ccccc4)[C@H]21)C3(C)C : 12.5
COc1ccc(C(=O)O[C@H]2[C@@H]3[C@]4(OC(C)=O)CO[C@@H]4C[C@H](O)[C@@]3(C)C(=O)[C@H](O)C3=C(C)[C@@H](OC(=O)/C=C/c4ccc5ccccc5c4)C[C@]2(O)C3(C)C)cc1 : 14
CC(=O)O[C@@]12CO[C@@H]1C[C@H](OC(=O)CN(C)C)[C@@]1(C)C(=O)[C@H](O)C3=C(C)[C@@H](OC(=O)/C=C/c4ccc5ccccc5c4)C[C@@](O)([C@@H](OC(=O)c4ccccc4)[C@H]21)C3(C)C : 4.3
CCCCCC(=O)O[C@H]1C(=O)[C@@]2(C)[C@H]([C@H](OC(=O)c3ccccc3)[C@]3(O)C[C@H](OC(=O)[C@H](O)[C@@H](NC(=O)c4ccccc4)c4ccccc4)C(C)=C1C3(C)C)[C@]1(OC(C)=O)CO[C@@H]1C[C@@H]2O : 0.65

[in] Determine its reported IC50: CCN(CC)CCC(=O)O[C@H]1C[C@H]2OC[C@@]2(OC(C)=O)[C@H]2[C@H](OC(=O)c3ccccc3)[C@]3(O)C[C@H](OC(=O)/C=C/c4ccc5ccccc5c4)C(C)=C([C@@H](OC(C)=O)C(=O)[C@]12C)C3(C)C
[out] 17

[in] Tell me IC50 reported for CC(=O)O[C@@]12CO[C@@H]1C[C@H](O)[C@@]1(C)C(=O)[C@H](O)C3=C(C)[C@@H](OC(=O)/C=C/c4cccc5ccccc45)C[C@@](O)([C@@H](OC(=O)c4ccccc4)[C@H]21)C3(C)C
[out] 80

---

System: MCF7
Test: Cytotoxicity against human MCF7 cell line
Type: functional, cell-based
pIC50: −log10 of the molar value.
RECORDED ENDPOINT: pIC50

Answered examples (2):
CC(=O)O[C@@]1([C@@H]2/C(C)=C(/O)C(=O)C3=C(C)[C@@H](OC(=O)/C=C/c4ccc5ccccc5c4)C[C@@](O)([C@H]2OC(=O)c2ccccc2)C3(C)C)CO[C@@H]1CCO : < 4.10
CC(=O)O[C@@]1([C@@H]2/C(C)=C(/O)C(=O)C3=C(C)[C@@H](OC(=O)/C=C/c4ccc(Oc5ccccc5)cc4)C[C@@](O)([C@H]2OC(=O)c2ccccc2)C3(C)C)CO[C@@H]1CCO : < 4.10

[in] Fetch value of pIC50 on MCF7 for CC(=O)O[C@@]12CO[C@@H]1C[C@H](OC(=O)CN(C)C)[C@@]1(C)C(=O)[C@H](O)C3=C(C)[C@@H](OC(=O)/C=C/c4ccc5ccccc5c4)C[C@@](O)([C@@H](OC(=O)c4ccccc4)[C@H]21)C3(C)C .
[out] < 4.70

---

System: Mycobacterium tuberculosis
Assay: Antimicrobial activity against Mycobacterium tuberculosis H37Rv
Type: functional
RECORDED ENDPOINT: MIC99 (µM)
Give just the number in µM; leave the unit off.

Look over these answered cases.
COc1ccc(C(=O)O[C@H]2[C@@H]3[C@]4(OC(C)=O)CO[C@@H]4C[C@H](O)[C@@]3(C)C(=O)[C@H](O)C3=C(C)[C@@H](OC(=O)/C=C/c4ccc5ccccc5c4)C[C@]2(O)C3(C)C)cc1 : 5
CC(=O)O[C@@]12CO[C@@H]1C[C@H](OC(=O)CN(C)C)[C@@]1(C)C(=O)[C@H](O)C3=C(C)[C@@H](OC(=O)/C=C/c4ccc5ccccc5c4)C[C@@](O)([C@@H](OC(=O)c4ccccc4)[C@H]21)C3(C)C : 20

[in] Input COc1ccc2cc(/C=C/C(=O)O[C@H]3C[C@@]4(O)[C@@H](OC(=O)c5ccccc5)[C@@H]5[C@]6(OC(C)=O)CO[C@@H]6C[C@H](O)[C@@]5(C)C(=O)[C@H](O)C(=C3C)C4(C)C)ccc2c1 , output reported MIC99.
[out] 5

Data origin: ChEMBL document CHEMBL1147745
